Where do the numbers come from? From patent US8796313B2.

Molecular target: human pancreas Glucokinase (GK) (Homo sapiens, UniProt P35557)
Construct: His6; made in house; host or cells: Escherichia coli
Sequence (P35557 whole entry): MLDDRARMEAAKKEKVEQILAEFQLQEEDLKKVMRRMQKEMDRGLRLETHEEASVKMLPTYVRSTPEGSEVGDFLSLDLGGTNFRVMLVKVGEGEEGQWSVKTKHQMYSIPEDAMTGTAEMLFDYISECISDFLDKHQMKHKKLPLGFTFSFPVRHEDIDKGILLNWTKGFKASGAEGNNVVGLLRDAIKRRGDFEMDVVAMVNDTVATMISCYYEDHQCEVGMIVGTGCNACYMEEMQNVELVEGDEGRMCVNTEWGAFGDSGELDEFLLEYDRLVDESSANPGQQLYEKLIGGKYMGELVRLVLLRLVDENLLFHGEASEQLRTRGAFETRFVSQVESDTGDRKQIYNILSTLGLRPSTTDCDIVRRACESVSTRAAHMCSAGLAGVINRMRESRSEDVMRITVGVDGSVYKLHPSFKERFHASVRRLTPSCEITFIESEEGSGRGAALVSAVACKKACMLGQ
Assay: Glucokinase enzyme assay, pancreas GK
Type: biochemical
Conditions: increase in GK activity above vehicle control, compound 50 μM, 12 mM glucose
activation at 50 µM values, listed per item
measurement-name: activation at 50 µM (%)

>>> obs_value("O=C(CCC1c2c(F)cccc2C(=O)N1Cc1ccc(F)cc1)Nc1cnccn1 (stereo not shown)")
272
>>> obs_value("CCOC(=O)c1ccnc(NC(=O)CCC2c3c(F)cccc3C(=O)N2Cc2ccc(F)cc2)c1 (stereo not shown)")
30.6
>>> obs_value("O=C(CCC1c2c(F)cccc2C(=O)N1Cc1ccc(-n2cccc2)cc1)Nc1ccc(F)cn1 (stereo not shown)")
168
>>> obs_value("O=C(CCC1c2c(F)cccc2C(=O)N1Cc1ccc(F)cc1)Nc1cccc[n+]1[O-] (stereo not shown)")
52.3
>>> obs_value("O=C(CCC1c2cccc(Cl)c2C(=O)N1Cc1ccc(F)cc1)Nc1ccccn1 (stereo not shown)")
306
>>> obs_value("Cc1ccc(NC(=O)CCC2c3c(F)cccc3C(=O)N2Cc2ccc(F)cc2)nc1 (stereo not shown)")
191
>>> obs_value("NS(=O)(=O)c1ccc(NC(=O)CCC2c3c(F)cccc3C(=O)N2Cc2ccc(F)cc2)nc1 (stereo not shown)")
142
>>> obs_value("O=C(Nc1ccccn1)OCCC1c2c(F)cccc2C(=O)N1Cc1ccc(F)cc1 (stereo not shown)")
13.8
>>> obs_value("COc1ccc(CN2C(=O)c3ccccc3C2CCC(=O)Nc2ccc(C(=O)O)cn2)cc1 (stereo not shown)")
167
>>> obs_value("O=C(CCC1c2c(F)ccc(F)c2C(=O)N1Cc1ccc(F)cc1)Nc1ccc(C(=O)O)cn1 (stereo not shown)")
302
>>> obs_value("COC(=O)c1ccc(NC(=O)CC[C@H]2c3c(F)cccc3C(=O)N2Cc2ccc(F)cc2)nc1")
223
>>> obs_value("CCOC(=O)c1csc(NC(=O)CCC2c3c(F)ccc(F)c3C(=O)N2Cc2ccc(F)cc2)n1 (stereo not shown)")
94.4
>>> obs_value("O=C(CCC1c2c(F)cccc2C(=O)N1Cc1ccc(F)cc1)Nc1ccc(C(=O)O)cn1 (stereo not shown)")
229
>>> obs_value("O=C(CC1c2ccccc2C(=O)N1Cc1ccc(F)cc1)Nc1ccc(C(=O)O)cn1 (stereo not shown)")
7.92
>>> obs_value("CN(C)c1ccc(CN2C(=O)c3cccc(F)c3C2CCC(=O)Nc2ccc(C(=O)O)cn2)cc1 (stereo not shown)")
212
>>> obs_value("CC(=O)c1ccc(NC(=O)CCC2c3c(F)cccc3C(=O)N2Cc2ccc(F)cc2)nc1 (stereo not shown)")
259
